- Tested on: Aspergillus flavus
- test: Antifungal activity against Aspergillus flavus MTCC 277 at 100 ug/ml after 48 hrs by agar well diffusion method
- Format: functional
- assay.setup: MTCC 277, 48 h, read-out: IZ
readout.type: zone of inhibition at 100 µg/mL

Item: N#CC#Cc1cc(F)c(Cl)nc1Cl | zone of inhibition at 100 µg/mL: 25 mm

Item: CC(C)OC(=O)C(C(=O)c1ccc(Cl)nc1)=P(c1ccccc1)(c1ccccc1)c1ccccc1 | zone of inhibition at 100 µg/mL: 0 mm

Item: N#CC#Cc1cccnc1Cl | zone of inhibition at 100 µg/mL: 39 mm

Item: CCOC(=O)C#Cc1ccc(Cl)nc1 | zone of inhibition at 100 µg/mL: 25 mm

Item: CCOC(=O)C(C(=O)c1cc(F)c(Cl)nc1Cl)=P(c1ccccc1)(c1ccccc1)c1ccccc1 | zone of inhibition at 100 µg/mL: 0 mm

Next:
Item: Cc1ccccc1C(=O)C(C#N)=P(c1ccccc1)(c1ccccc1)c1ccccc1 | zone of inhibition at 100 µg/mL: 0 mm

====

- System: Staphylococcus epidermidis
- test: Antibacterial activity against Staphylococcus epidermidis MTCC 435 by broth dilution method
- Assay type: functional
readout.type: MIC

Item: N#CC(C(=O)c1ccc(Cl)nc1)=P(c1ccccc1)(c1ccccc1)c1ccccc1 | MIC: > 150 µg/mL

Item: Cc1ccccc1C(=O)C(C#N)=P(c1ccccc1)(c1ccccc1)c1ccccc1 | MIC: > 150 µg/mL

Next:
Item: CCOC(=O)C(C(=O)C(C)(C)C)=P(c1ccccc1)(c1ccccc1)c1ccccc1 | MIC: > 150 µg/mL

Item: CCOC(=O)C(C(=O)c1cc(F)c(Cl)nc1Cl)=P(c1ccccc1)(c1ccccc1)c1ccccc1 | MIC: > 150 µg/mL

Item: CCOC(=O)C(C(=O)c1cccnc1Cl)=P(c1ccccc1)(c1ccccc1)c1ccccc1 | MIC: > 150 µg/mL

Item: CC(C)OC(=O)C(C(=O)C(C)(C)C)=P(c1ccccc1)(c1ccccc1)c1ccccc1 | MIC: > 150 µg/mL

Item: CC(C)OC(=O)C(C(=O)c1ccc(Cl)nc1)=P(c1ccccc1)(c1ccccc1)c1ccccc1 | MIC: > 150 µg/mL

Item: N#CC#Cc1cc(F)c(Cl)nc1Cl | MIC: 25 µg/mL

Item: CCOC(=O)C#Cc1ccccc1C | MIC: > 150 µg/mL

Item: CCOC(=O)C#Cc1ccc(Cl)nc1 | MIC: 50 µg/mL

====

- Tested on: Aspergillus niger
- test: Antifungal activity against Aspergillus niger MTCC 344 at 50 ug/ml after 48 hrs by agar well diffusion method
- Format: functional
- assay.setup: MTCC 344, 48 h, read-out: IZ
readout.type: zone of inhibition at 50 µg/mL (mm)
Entry rule: numbers only, all in mm.

Examples with answers:
Item: N#CC#Cc1cccnc1Cl | zone of inhibition at 50 µg/mL: 26

Item: CC(C)OC(=O)C#Cc1ccc(Cl)nc1 | zone of inhibition at 50 µg/mL: 17

Item: Cc1ccccc1C#CC#N | zone of inhibition at 50 µg/mL: 0

Item: N#CC#Cc1ccc(Cl)nc1 | zone of inhibition at 50 µg/mL: 39

Item: CCOC(=O)C#CC(C)(C)C | zone of inhibition at 50 µg/mL: 0

Next:
Item: CCOC(=O)C#Cc1ccccc1C | zone of inhibition at 50 µg/mL: 0

Item: CCOC(=O)C#Cc1ccc(Cl)nc1 | zone of inhibition at 50 µg/mL: 25

Item: C[C@@H]1[C@H](O)[C@@H](C)/C=C/C=C/C=C/C=C/C=C/C=C/C=C/[C@H](O[C@@H]2O[C@H](C)[C@@H](O)[C@H](N)[C@@H]2O)C[C@@H]2O[C@](O)(C[C@@H](O)C[C@@H](O)[C@H](O)CC[C@@H](O)C[C@@H](O)CC(=O)O[C@H]1C)C[C@H](O)[C@H]2C(=O)O [AMPHOTERICIN B] | zone of inhibition at 50 µg/mL: 25

Item: N#CC#Cc1cc(F)c(Cl)nc1Cl | zone of inhibition at 50 µg/mL: 20

====

- System: Saccharomyces cerevisiae
- test: Antifungal activity against Saccharomyces cerevisiae MTCC 36 at 100 ug/ml after 48 hrs by agar well diffusion method
- Format: functional
- assay.setup: MTCC 36, 48 h, read-out: IZ
readout.type: zone of inhibition at 100 µg/mL (mm)
Entry rule: numbers only, all in mm.

Item: N#CC#Cc1cccnc1Cl | zone of inhibition at 100 µg/mL: 11

Next:
Item: CC(C)OC(=O)C(C(=O)C(C)(C)C)=P(c1ccccc1)(c1ccccc1)c1ccccc1 | zone of inhibition at 100 µg/mL: 0

Item: N#CC(C(=O)c1cc(F)c(Cl)nc1Cl)=P(c1ccccc1)(c1ccccc1)c1ccccc1 | zone of inhibition at 100 µg/mL: 0

Item: CCOC(=O)C(C(=O)c1ccco1)=P(c1ccccc1)(c1ccccc1)c1ccccc1 | zone of inhibition at 100 µg/mL: 0

Item: N#CC#Cc1cc(F)c(Cl)nc1Cl | zone of inhibition at 100 µg/mL: 10

Item: CCOC(=O)C(C(=O)c1cc(F)c(Cl)nc1Cl)=P(c1ccccc1)(c1ccccc1)c1ccccc1 | zone of inhibition at 100 µg/mL: 0

Item: CC(C)(C)C(=O)C(C#N)=P(c1ccccc1)(c1ccccc1)c1ccccc1 | zone of inhibition at 100 µg/mL: 0

Item: Cc1ccccc1C(=O)C(C#N)=P(c1ccccc1)(c1ccccc1)c1ccccc1 | zone of inhibition at 100 µg/mL: 0

Item: CC(C)OC(=O)C#Cc1ccc(Cl)nc1 | zone of inhibition at 100 µg/mL: 17

Item: CCOC(=O)C(C(=O)c1ccccc1C)=P(c1ccccc1)(c1ccccc1)c1ccccc1 | zone of inhibition at 100 µg/mL: 0

Item: N#CC(C(=O)c1cccnc1Cl)=P(c1ccccc1)(c1ccccc1)c1ccccc1 | zone of inhibition at 100 µg/mL: 0

Item: N#CC#Cc1ccc(Cl)nc1 | zone of inhibition at 100 µg/mL: 10

Item: CCOC(=O)C(C(=O)C(C)(C)C)=P(c1ccccc1)(c1ccccc1)c1ccccc1 | zone of inhibition at 100 µg/mL: 0

Item: CC(C)OC(=O)C(C(=O)c1cc(F)c(Cl)nc1Cl)=P(c1ccccc1)(c1ccccc1)c1ccccc1 | zone of inhibition at 100 µg/mL: 0

Item: CCOC(=O)C#Cc1ccc(Cl)nc1 | zone of inhibition at 100 µg/mL: 29

Item: CC(C)OC(=O)C(C(=O)c1ccco1)=P(c1ccccc1)(c1ccccc1)c1ccccc1 | zone of inhibition at 100 µg/mL: 0

Item: N#CC(C(=O)c1ccc(Cl)nc1)=P(c1ccccc1)(c1ccccc1)c1ccccc1 | zone of inhibition at 100 µg/mL: 0

Item: CCOC(=O)C(C(=O)c1ccc(Cl)nc1)=P(c1ccccc1)(c1ccccc1)c1ccccc1 | zone of inhibition at 100 µg/mL: 0

====

# zone of inhibition at 50 µg/mL values compiled below
- Test system: Aspergillus flavus
- test: Antifungal activity against Aspergillus flavus MTCC 277 at 50 ug/ml after 48 hrs by agar well diffusion method
- Format: functional
- assay.setup: MTCC 277, 48 h, read-out: IZ
Entry rule: numbers only, all in mm.

Examples with answers:
Item: CC(C)OC(=O)C#Cc1ccc(Cl)nc1 | zone of inhibition at 50 µg/mL: 12

Item: C[C@@H]1[C@H](O)[C@@H](C)/C=C/C=C/C=C/C=C/C=C/C=C/C=C/[C@H](O[C@@H]2O[C@H](C)[C@@H](O)[C@H](N)[C@@H]2O)C[C@@H]2O[C@](O)(C[C@@H](O)C[C@@H](O)[C@H](O)CC[C@@H](O)C[C@@H](O)CC(=O)O[C@H]1C)C[C@H](O)[C@H]2C(=O)O | zone of inhibition at 50 µg/mL: 25

Item: N#CC#Cc1cccnc1Cl | zone of inhibition at 50 µg/mL: 35

Item: CCOC(=O)C#Cc1ccccc1C | zone of inhibition at 50 µg/mL: 0

Item: CCOC(=O)C#Cc1ccc(Cl)nc1 | zone of inhibition at 50 µg/mL: 20

Attention now shifts to the item below.
Item: CCOC(=O)C#CC(C)(C)C | zone of inhibition at 50 µg/mL: 0

====

# MIC values compiled below
- System: Staphylococcus epidermidis
- test: Antibacterial activity against Staphylococcus epidermidis MTCC 435 by broth dilution method
- Format: functional

The compound CC(C)OC(=O)C#Cc1ccc(Cl)nc1 , when measured on Staphylococcus epidermidis, yielded MIC of 1.56 µg/mL

The compound CC(C)OC(=O)C(C(=O)c1cc(F)c(Cl)nc1Cl)=P(c1ccccc1)(c1ccccc1)c1ccccc1 , when measured on Staphylococcus epidermidis, yielded MIC of > 150 µg/mL

The compound CCOC(=O)C(C(=O)c1ccccc1C)=P(c1ccccc1)(c1ccccc1)c1ccccc1 , when measured on Staphylococcus epidermidis, yielded MIC of > 150 µg/mL

The compound N#CC#Cc1ccc(Cl)nc1 , when measured on Staphylococcus epidermidis, yielded MIC of 6.25 µg/mL

The compound CCOC(=O)C(C(=O)c1ccco1)=P(c1ccccc1)(c1ccccc1)c1ccccc1 , when measured on Staphylococcus epidermidis, yielded MIC of > 150 µg/mL

The compound N#CC(C(=O)c1cc(F)c(Cl)nc1Cl)=P(c1ccccc1)(c1ccccc1)c1ccccc1 , when measured on Staphylococcus epidermidis, yielded MIC of > 150 µg/mL

Next:
The compound CC(C)(C)C(=O)C(C#N)=P(c1ccccc1)(c1ccccc1)c1ccccc1 , when measured on Staphylococcus epidermidis, yielded MIC of > 150 µg/mL

The compound CC1(C)S[C@@H]2[C@H](NC(=O)Cc3ccccc3)C(=O)N2[C@H]1C(=O)O [PENICILLIN G] , when measured on Staphylococcus epidermidis, yielded MIC of 3.12 µg/mL

The compound N#CC(C(=O)c1cccnc1Cl)=P(c1ccccc1)(c1ccccc1)c1ccccc1 , when measured on Staphylococcus epidermidis, yielded MIC of > 150 µg/mL

The compound CC(C)OC(=O)C(C(=O)c1ccco1)=P(c1ccccc1)(c1ccccc1)c1ccccc1 , when measured on Staphylococcus epidermidis, yielded MIC of > 150 µg/mL

The compound CN[C@@H]1[C@H](O[C@H]2[C@H](O[C@H]3[C@H](O)[C@@H](O)[C@H](N=C(N)N)[C@@H](O)[C@@H]3N=C(N)N)O[C@@H](C)[C@]2(O)C=O)O[C@@H](CO)[C@H](O)[C@H]1O [STREPTOMYCIN] , when measured on Staphylococcus epidermidis, yielded MIC of 3.12 µg/mL
